# credit: patent US20140205597A1

# ASSAY SYSTEM: affinity purified antibody IHuP#002-001-ABL-08
# METHOD NOTES: ECL bridging/competition assay, 10 ug/ml ISV vs tagged ISV
Output true for % reduction not less than 20%; output false otherwise.

binder="Example 1C: (K83R) (SEQ ID NO: 25) (VHH) VHH: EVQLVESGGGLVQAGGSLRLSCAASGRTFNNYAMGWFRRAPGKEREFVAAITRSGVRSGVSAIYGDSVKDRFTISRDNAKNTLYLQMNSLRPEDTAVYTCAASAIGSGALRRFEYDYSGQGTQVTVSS" class_name=false
binder="Example 1C: (A14P) (SEQ ID NO: 24) (VHH) VHH: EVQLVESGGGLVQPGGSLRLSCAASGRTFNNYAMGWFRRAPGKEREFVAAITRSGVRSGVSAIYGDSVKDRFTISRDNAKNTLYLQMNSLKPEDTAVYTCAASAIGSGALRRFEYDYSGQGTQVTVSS" class_name=true
binder="Example 1C: wildtype VHH (SEQ ID NO: 23) (VHH) VHH: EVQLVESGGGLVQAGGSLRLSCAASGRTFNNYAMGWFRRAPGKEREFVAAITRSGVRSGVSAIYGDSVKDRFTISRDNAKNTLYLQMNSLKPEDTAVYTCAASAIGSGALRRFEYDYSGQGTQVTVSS" class_name=false
binder="Example 1C: (A14P, R39Q, K83R, T91Y, Q108L) (SEQ ID NO: 28) (VHH) VHH: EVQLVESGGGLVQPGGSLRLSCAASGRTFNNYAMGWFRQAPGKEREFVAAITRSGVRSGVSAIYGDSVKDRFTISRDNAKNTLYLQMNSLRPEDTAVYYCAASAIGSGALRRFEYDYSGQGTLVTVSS" class_name=true
binder="Example 1C: (Q108L) (SEQ ID NO: 26) (VHH) VHH: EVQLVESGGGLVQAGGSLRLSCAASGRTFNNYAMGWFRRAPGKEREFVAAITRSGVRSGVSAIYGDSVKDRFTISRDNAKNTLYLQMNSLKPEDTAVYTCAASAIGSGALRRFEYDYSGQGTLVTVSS" class_name=false
binder="Example 1C: (A14P, K83R, Q108L) (SEQ ID NO: 27) (VHH) VHH: EVQLVESGGGLVQPGGSLRLSCAASGRTFNNYAMGWFRRAPGKEREFVAAITRSGVRSGVSAIYGDSVKDRFTISRDNAKNTLYLQMNSLRPEDTAVYTCAASAIGSGALRRFEYDYSGQGTLVTVSS" class_name=true
